Test system: Mycobacterium tuberculosis
Experimental details: Antimycobacterial activity against multi drug-resistant Mycobacterium tuberculosis 7357/1998 assessed as minimal inhibitory concentration required for complete inhibition of mycobacterial growth incubated for 14 days
Type: functional
Protocol conditions: 7357/1998, 336 h, time 14 day
Metric name: MIC (µM)
# number only, unit µM dropped from output

C/C(=N\NC(=O)c1ccncc1)C(=O)Nc1ccc(Cl)cc1; 32
C/C(=N\NC(=O)c1ccncc1)C(=O)Nc1ccc(Cl)c(Cl)c1; 64
C/C(=N\NC(=O)c1ccncc1)C(=O)Nc1ccc(Br)cc1; 32
C/C(=N\NC(=O)c1ccncc1)C(=O)Nc1cccc(Cl)c1; 32
C/C(=N\NC(=O)c1ccncc1)C(=O)Nc1ccc(OC(F)(F)F)cc1; 32

Problem: Sample C/C(=N\NC(=O)c1ccncc1)C(=O)Nc1ccc(I)cc1 — what was its MIC?
Solution: 16

Problem: Sample C/C(=N\NC(=O)c1ccncc1)C(=O)Nc1ccc(C(F)(F)F)cc1 — what was its MIC?
Solution: 32

Problem: Sample C/C(=N\NC(=O)c1ccncc1)C(=O)Nc1ccc(F)cc1 — what was its MIC?
Solution: 64

====

Test system: Mycobacterium tuberculosis
Experimental details: Antimycobacterial activity against multi drug-resistant Mycobacterium tuberculosis 234/2005 assessed as minimal inhibitory concentration required for complete inhibition of mycobacterial growth incubated for 21 days
Format: functional
Protocol conditions: 234/2005, 504 h, time 21 day
Metric name: MIC
# answer = value followed by unit

Problem: Sample C/C(=N\NC(=O)c1ccncc1)C(=O)Nc1ccc(Br)cc1 — what was its MIC?
Solution: 64 µM

Problem: Sample C/C(=N\NC(=O)c1ccncc1)C(=O)Nc1cccc(Cl)c1 — what was its MIC?
Solution: 64 µM

Problem: Sample C/C(=N\NC(=O)c1ccncc1)C(=O)Nc1ccc(Cl)c(Cl)c1 — what was its MIC?
Solution: 125 µM

Problem: Sample C/C(=N\NC(=O)c1ccncc1)C(=O)Nc1ccc(I)cc1 — what was its MIC?
Solution: 16 µM

====

Parameter MIC: see the listing below.
Tested on: Mycobacterium tuberculosis
Experimental details: Antimycobacterial activity against multi drug-resistant Mycobacterium tuberculosis praha 131 assessed as minimal inhibitory concentration required for complete inhibition of mycobacterial growth incubated for 21 days
Assay type: functional
Protocol conditions: praha 131, 504 h, time 21 day
# number only, unit µM dropped from output

C/C(=N\NC(=O)c1ccncc1)C(=O)Nc1ccc(OC(F)(F)F)cc1; 64
C/C(=N\NC(=O)c1ccncc1)C(=O)Nc1cccc(Cl)c1; 64
C/C(=N\NC(=O)c1ccncc1)C(=O)Nc1ccc(Cl)c(Cl)c1; 64

Problem: Sample C/C(=N\NC(=O)c1ccncc1)C(=O)Nc1ccc(Cl)cc1 — what was its MIC?
Solution: 64

Problem: Sample C/C(=N\NC(=O)c1ccncc1)C(=O)Nc1ccc(Br)cc1 — what was its MIC?
Solution: 64

Problem: Sample C/C(=N\NC(=O)c1ccncc1)C(=O)Nc1ccc(I)cc1 — what was its MIC?
Solution: 16

Problem: Sample C/C(=N\NC(=O)c1ccncc1)C(=O)Nc1ccc(C(F)(F)F)cc1 — what was its MIC?
Solution: 64

Problem: Sample C/C(=N\NC(=O)c1ccncc1)C(=O)Nc1ccc(F)cc1 — what was its MIC?
Solution: 64

====

Parameter MIC: see the listing below.
Tested on: Mycobacterium tuberculosis
Experimental details: Antimycobacterial activity against multi drug-resistant Mycobacterium tuberculosis 234/2005 assessed as minimal inhibitory concentration required for complete inhibition of mycobacterial growth incubated for 21 days
Assay type: functional
Protocol conditions: 234/2005, 504 h, time 21 day
# number only, unit µM dropped from output

C/C(=N\NC(=O)c1ccncc1)C(=O)Nc1ccc(OC(F)(F)F)cc1; 32
C/C(=N\NC(=O)c1ccncc1)C(=O)Nc1ccc(F)cc1; 125
C/C(=N\NC(=O)c1ccncc1)C(=O)Nc1ccc(Cl)cc1; 64

Now consider the entry below.
Problem: Sample C/C(=N\NC(=O)c1ccncc1)C(=O)Nc1ccc(C(F)(F)F)cc1 — what was its MIC?
Solution: 64
